System: Caco-2
Test: cell viability relative to DMSO; higher = less toxic
Conditions: 72 h; 1 nM
parameter measured: cell viability (%)

# smiles, parameter measured, display unit, assay result
data = [
    ("CC(C)[C@@H](CS(=O)(=O)C(C)C)N1C(=O)[C@@](C)(CC(=O)O)C[C@H](c2cccc(Cl)c2)[C@H]1c1ccc(Cl)cc1", "cell viability", "%", 99.6),
    ("CNCCCCOc1ccccc1Cc1ccccc1", "cell viability", "%", 100),
    ("OCCC#Cc1nc(-c2ccc(F)cc2)c(-c2ccncc2)n1CCCc1ccccc1", "cell viability", "%", 98.4),
    ("N#Cc1cccc(-c2c[nH]c3ncnc(N4CCOCC4)c23)c1", "cell viability", "%", 104),
]
